Test system: P. falciparum male gametocytes
Assay: P. falciparum Dual Gamete Formation Assay (PfDGFA), male readout (exflagellation)
Format: cell-based, Plasmodium falciparum NF54
Settings: 2µM, 24h preincubation with gametocytes prior to induction of gametogenesis; average of replicates
Procedure: […] The Pf DGFA was performed as described in Delves et al. 2016 [17]. […] Exflagellation was recorded by capturing 10 frames over 1 s under brightfield illumination using a x4 objective with a 1.5x zoom (effectively x6) attached to an automated Nikon Ti fluorescence microscope. […] The plates were then returned to the microscope and female gametes imaged at x6 using fluorescence microscopy. […]
readout_label: Average inhibition male (%)

| compound | readout_label | unit_spec | reported_measurement |
| --- | --- | --- | --- |
| CN(C)CCCOc1cccc(CCNCc2cccc(Oc3ccc(Cl)cc3)c2)c1.O=C(O)C(F)(F)F [TCMDC-140091] | Average inhibition male (%) | % | 24.7 |
| CN1CCC(N2CCN(Cc3cccc(-c4ccc(-c5nc6cc(F)ccc6[nH]5)cc4)c3)CC2)CC1.O=C(O)C(F)(F)F [TCMDC-133858] | Average inhibition male (%) | % | 26.9 |
| CC(=O)Nc1ccc2[nH]cc(C3CCN(CC4CCC(NC(=O)/C=C/c5ccc(Cl)c(Cl)c5)CC4)CC3)c2n1 (stereo not drawn) [TCMDC-140114] | Average inhibition male (%) | % | 48.3 |
| O=C(O)C(F)(F)F.O=S(=O)(NCCN1CCCC1)c1ccc(-c2cccc(CNC3Cc4ccccc4C3)c2)cc1F [TCMDC-132221] | Average inhibition male (%) | % | 11.1 |
| CN1CCN(Cc2nc(-c3ccc4c(Nc5ccc(F)c(O)c5)ccnc4c3)cs2)CC1 [TCMDC-138439] | Average inhibition male (%) | % | 3.8 |
| O=C(C1CC1c1ccccc1)N(Cc1ccc(-c2ccc(CNCCc3ccccc3)cc2)cc1)C1CCNCC1.O=C(O)C(F)(F)F (stereo not drawn) [TCMDC-141443] | Average inhibition male (%) | % | 40.0 |
| N=C(N)Nc1nc(-c2cccc(NC(=O)NCCc3c[nH]c4ccc(OCc5ccccc5)cc34)c2)cs1 [TCMDC-139557] | Average inhibition male (%) | % | 6.6 |
| O=C(/C=C/c1c(Cl)cccc1Cl)NC1CCC(CN2CCC(c3c[nH]c4ccncc34)CC2)CC1 (stereo not drawn) [TCMDC-140220] | Average inhibition male (%) | % | 43.5 |
| Fc1ccc2[nH]c(-c3cccc(-c4ccc(CNCCN5CCNCC5)cc4)c3)nc2c1.O=C(O)C(F)(F)F [TCMDC-132863] | Average inhibition male (%) | % | 43.0 |
| CCC(CC)n1c(C)cc2c3c(N)nc(N)nc3ccc21 [TCMDC-137283] | Average inhibition male (%) | % | 25.7 |
| Cc1nc(N)nc(N)c1-c1ccc(Br)c([N+](=O)[O-])c1 [TCMDC-138071] | Average inhibition male (%) | % | -11.3 |
| C[C@@H](Oc1cc(-n2cnc3ccc(OCC4CCN(S(C)(=O)=O)CC4)cc32)sc1C(N)=O)c1ccccc1C(F)(F)F [TCMDC-135685] | Average inhibition male (%) | % | 39.3 |
| Cc1cccc2nc(-c3ccc(-c4ccc(CN5CCN(C6CCN(C)CC6)CC5)cc4)s3)[nH]c12.O=C(O)C(F)(F)F [TCMDC-133866] | Average inhibition male (%) | % | 12.4 |
| CN(CCN)Cc1ccc(-c2ccc(-c3nc4cc(C(F)(F)F)ccc4[nH]3)s2)cc1.O=C(O)C(F)(F)F [TCMDC-132821] | Average inhibition male (%) | % | -7.8 |
| CCCCCCCN1CC[C@@H](CCCc2ccnc3ccc(OC)cc23)[C@@H](CCN)C1.O=C(O)C(=O)O [TCMDC-139278] | Average inhibition male (%) | % | 60.9 |
